Listed below: Inhibition (%) of Chemicals on Enzyme Activity values for each entry.
# Test system: Alginate lyase from Bacillus stearothermophilus
# Test protocol: Effects of chemicals commonly used in water cooling systems on alginate lyase activity
# Type: biochemical
# Test settings: chemical at 10 mM final concentration, 16 hours incubation
Quantity: Inhibition (%) of Chemicals on Enzyme Activity

1) O=C(O)CN(CCN(CC(=O)O)CC(=O)O)CC(=O)O [EDTA, ethylene diamine tetraacetate]; 0
2) [Na+].[Na+].[O]=[Mo](=[O])([O-])[O-]; 0
3) [Na+].[O]=[Al-]=[O]; 0
4) [Zn]; 43.7
5) O=S(=O)([O-])[O-].[Fe+2]; 0
6) NN [hydrazine]; 0
7) O=N[O-].[Na+] [NaNO2, sodium nitrite]; 0
8) [Cl-].[Na+]; 48.7
9) O=CCCCC=O; 0

Data provenance: patent US5139945A
